These measurements were taken from patent US20240352087A1.

Molecular target: T1, HLA-A*01:01 (human), P04439
T1 chain: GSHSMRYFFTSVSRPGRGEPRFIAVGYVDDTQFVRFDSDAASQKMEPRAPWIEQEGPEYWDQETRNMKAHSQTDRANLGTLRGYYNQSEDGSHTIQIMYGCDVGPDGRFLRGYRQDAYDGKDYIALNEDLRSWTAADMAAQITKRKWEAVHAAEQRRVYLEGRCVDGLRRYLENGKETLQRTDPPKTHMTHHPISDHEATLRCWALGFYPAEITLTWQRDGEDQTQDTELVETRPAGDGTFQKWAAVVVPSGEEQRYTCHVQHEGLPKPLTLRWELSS
Experiment: HLA-binding assay
Conditions: chains peptide; modification not given
Overview of reported IC50 across a group of binders:
Note: unit nM is implicit; provide only the numeric part.

INSERT INTO measurements (binder, display_unit, measured_result) VALUES
  ('KSAIVTLTY [HPV E2 329-337 peptide …]', 'nM', 11);

q: Could you share which IC50 value was measured for QVDYYGLYY [HPV E2 151-159 peptide …] ?
a: 18
